Parameter pKi: see the listing below.
- measuredOn: Kappa-type opioid receptor (Cavia porcellus)
- Sequence (P41144 whole entry): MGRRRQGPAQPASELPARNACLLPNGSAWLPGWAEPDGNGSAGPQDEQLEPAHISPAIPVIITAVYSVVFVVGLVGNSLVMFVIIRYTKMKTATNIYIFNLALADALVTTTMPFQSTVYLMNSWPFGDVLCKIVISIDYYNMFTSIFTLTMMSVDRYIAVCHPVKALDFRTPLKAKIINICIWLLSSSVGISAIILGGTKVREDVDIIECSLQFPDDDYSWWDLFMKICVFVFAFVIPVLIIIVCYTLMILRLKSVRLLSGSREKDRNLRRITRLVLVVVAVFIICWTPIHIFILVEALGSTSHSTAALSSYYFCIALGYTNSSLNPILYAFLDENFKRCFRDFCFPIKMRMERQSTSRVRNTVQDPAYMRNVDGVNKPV
- measurementProtocol: Binding affinity for kappa opioid receptor by displacing U-69,593 was determined in [35S]GTP gamma-S binding assay
- Format: functional
Remember the convention: pKi equals -log10 of concentration in molar.

Reference set, count: 2
# molecule, pKi
rows = [
    ("CCCC[C@H]1c2c([nH]c3ccccc23)[C@@H]2Oc3c(O)ccc4c3C23CCN(C)C(C4)C13 (stereo partly drawn)", 6.57),
    ("C[C@H]1c2c([nH]c3ccccc23)[C@@H]2Oc3c(O)ccc4c3C23CCN(C)C(C4)C13 (stereo partly drawn)", 6.40),
]

Switching to the query record.
Returns the measured pKi for the input molecule. Input: CN1CC[C@]23c4c5ccc(O)c4O[C@H]2c2[nH]c4ccccc4c2C[C@H]3[C@H]1C5
6.14
